Where these numbers come from: ChEMBL document CHEMBL3758117

- Assay notes: Selectivity index, ratio of IC50 for human MRC5 cells to IC50 for human H1299 cells
- Type: functional
Assign labels as follows, please: T for Ratio IC50 below 1; F for Ratio IC50 equal to or exceeding 1.

Inquiry: Please state whether Ratio IC50 is below 1 for CN(C)CCCO/N=C1\c2ccccc2-c2nc3c(CN4CCC(N5CCCCC5)CC4)cccc3nc21.Cl
Reply text: T

Inquiry: In the record for O=C1c2ccccc2-c2nc3c(C(=O)NCCN4CCCC4)cccc3nc21 , is Ratio IC50 less than 1?
Reply text: T

Inquiry: Regarding CN(C)CCCO/N=C/c1cccc2nc3c(nc12)-c1ccccc1/C3=N\OCCCN(C)C.Cl , kindly confirm whether its Ratio IC50 is beneath 1.
Reply text: F

Inquiry: Record O/N=C\c1cccc2nc3c(nc12)-c1ccccc1/C3=N/O : is its Ratio IC50 strictly below 1?
Reply text: T

Inquiry: Report whether reported Ratio IC50 is lower than 1 (strictly) for CN(C)CCCNC(=O)c1cccc2nc3c(nc12)-c1ccccc1C3=O
Reply text: F

Inquiry: Bench note: check whether CC[C@@]1(O)C(=O)OCc2c1cc1n(c2=O)Cc2cc3c(CN(C)C)c(O)ccc3nc2-1 shows Ratio IC50 below 1
Reply text: T

Inquiry: I wonder whether CN(C)CCCO/N=C1\c2ccccc2-c2nc3c(CN(C)C)cccc3nc21.Cl has Ratio IC50 below 1. Can you tell?
Reply text: F

Inquiry: Quick check: does CN(C)CCCNC(=O)c1cccc2nc3c(nc12)-c1ccccc1/C3=N\OCCCN(C)C.Cl have Ratio IC50 under 1?
Reply text: F

Inquiry: Determine if Cc1cccc2nc3c(nc12)-c1ccccc1/C3=N\OCCCN(C)C.Cl shows Ratio IC50 strictly lower than 1.
Reply text: F

Inquiry: Would you kindly verify if Ratio IC50 of Cl.c1ccc2c(c1)/C(=N\OCCN1CCCC1)c1nc3ccccc3nc1-2 is strictly less than 1?
Reply text: F

Inquiry: Ratio IC50 strictly < 1 for this molecule? CN(C)CCCO/N=C1\c2ccccc2-c2nc3c(CN4CCOCC4)cccc3nc21.Cl
Reply text: F

Inquiry: Lab log: compare recorded Ratio IC50 with 1; is it strictly lower for CN(C)CCCO/N=C1\c2ccccc2-c2nc3ccccc3nc21.Cl ?
Reply text: F

Inquiry: Please determine if CN(C)CCNC(=O)c1cccc2nc3c(nc12)-c1ccccc1C3=O is below 1 in terms of Ratio IC50.
Reply text: F

Inquiry: Field: below-cutoff. Rule: recorded Ratio IC50 strictly less than 1. Subject: CN(C)CCCO/N=C1\c2ccccc2-c2nc3c(CN4CCCCC4)cccc3nc21.Cl
Reply text: F

Inquiry: Could you please tell me whether Ratio IC50 recorded for CN(C)CCCO/N=C1\c2ccccc2-c2nc3c(C(=O)NCCN4CCCC4)cccc3nc21.Cl is less than 1?
Reply text: F

Inquiry: Decide: Ratio IC50 of C(=N\OCCN1CCCC1)/c1cccc2nc3c(nc12)-c1ccccc1/C3=N\OCCN1CCCC1.Cl strictly below 1?
Reply text: T

Inquiry: Dear reviewer, please state whether CN(C)CCCO/N=C1\c2ccccc2-c2nc3c(C(=O)NCCN(C)C)cccc3nc21.Cl has Ratio IC50 strictly beneath 1.
Reply text: F

Inquiry: Determine if CN(C)CCCO/N=C1\c2ccccc2-c2nc3c(C(=O)NCCN4CCOCC4)cccc3nc21.Cl shows Ratio IC50 strictly lower than 1.
Reply text: F

---

- Tested target: DNA topoisomerase 2-alpha (Homo sapiens) (UniProt P11388)
- Sequence (P11388 whole entry): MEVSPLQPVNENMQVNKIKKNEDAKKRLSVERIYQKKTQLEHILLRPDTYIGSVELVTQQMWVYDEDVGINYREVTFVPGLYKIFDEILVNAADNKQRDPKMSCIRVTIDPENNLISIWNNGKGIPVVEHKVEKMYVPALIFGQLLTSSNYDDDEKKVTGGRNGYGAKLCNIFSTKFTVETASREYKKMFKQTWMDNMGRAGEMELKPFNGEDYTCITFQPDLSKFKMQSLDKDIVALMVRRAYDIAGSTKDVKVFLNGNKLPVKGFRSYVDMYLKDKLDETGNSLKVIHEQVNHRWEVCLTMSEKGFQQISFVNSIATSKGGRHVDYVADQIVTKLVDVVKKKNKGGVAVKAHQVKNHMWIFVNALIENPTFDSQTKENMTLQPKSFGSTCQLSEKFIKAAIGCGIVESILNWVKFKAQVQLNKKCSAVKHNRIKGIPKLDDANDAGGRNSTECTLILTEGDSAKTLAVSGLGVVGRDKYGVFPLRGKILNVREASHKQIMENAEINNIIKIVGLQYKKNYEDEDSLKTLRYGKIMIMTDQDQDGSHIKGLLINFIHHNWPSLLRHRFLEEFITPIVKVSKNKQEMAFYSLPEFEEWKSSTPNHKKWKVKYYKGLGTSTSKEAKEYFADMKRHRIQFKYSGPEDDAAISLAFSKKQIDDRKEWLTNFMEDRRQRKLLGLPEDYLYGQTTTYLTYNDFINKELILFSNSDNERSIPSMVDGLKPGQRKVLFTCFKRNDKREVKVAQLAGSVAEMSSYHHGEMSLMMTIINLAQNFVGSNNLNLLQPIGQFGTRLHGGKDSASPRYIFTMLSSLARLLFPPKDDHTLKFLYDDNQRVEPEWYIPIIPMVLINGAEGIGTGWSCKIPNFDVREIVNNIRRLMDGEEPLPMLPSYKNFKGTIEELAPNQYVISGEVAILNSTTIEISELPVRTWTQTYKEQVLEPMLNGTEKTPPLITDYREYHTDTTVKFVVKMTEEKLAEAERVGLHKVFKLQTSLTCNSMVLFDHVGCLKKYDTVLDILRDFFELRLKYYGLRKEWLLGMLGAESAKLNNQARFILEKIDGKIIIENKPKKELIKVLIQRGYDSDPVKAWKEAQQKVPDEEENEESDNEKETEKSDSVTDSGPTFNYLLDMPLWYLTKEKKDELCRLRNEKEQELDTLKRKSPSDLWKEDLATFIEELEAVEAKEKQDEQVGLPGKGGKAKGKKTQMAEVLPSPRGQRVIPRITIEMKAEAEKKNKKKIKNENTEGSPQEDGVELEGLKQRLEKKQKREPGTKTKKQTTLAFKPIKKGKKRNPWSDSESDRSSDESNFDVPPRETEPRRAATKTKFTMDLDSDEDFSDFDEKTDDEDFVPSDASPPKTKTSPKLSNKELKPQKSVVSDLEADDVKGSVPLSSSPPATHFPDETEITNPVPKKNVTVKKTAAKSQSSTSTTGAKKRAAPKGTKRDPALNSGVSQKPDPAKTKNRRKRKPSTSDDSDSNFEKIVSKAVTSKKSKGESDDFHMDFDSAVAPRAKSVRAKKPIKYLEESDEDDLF
- Assay notes: Inhibition of human DNA topoisomerase 2-mediated relaxation of supercoiled pBR322 DNA at 10 uM after 30 mins by ethidium bromide staining based agarose gel electrophoresis
Activity calls are given as the source filed them. The rule behind the calls is not given here.
Please state which outcome applies, choosing from active, inactive

Inquiry: Recorded test outcome, item CN(C)CCCO/N=C1\c2ccccc2-c2nc3c(C(=O)NCCN4CCCC4)cccc3nc21.Cl
Reply text: active

Inquiry: Record lookup: outcome of this test for CN(C)CCCO/N=C1\c2ccccc2-c2nc3c(CN4CCOCC4)cccc3nc21.Cl ?
Reply text: inactive

Inquiry: Which outcome was assigned to CN(C)CCCO/N=C1\c2ccccc2-c2nc3ccccc3nc21.Cl in this test?
Reply text: inactive

Inquiry: Which result was noted for this compound in the test: CN(C)CCCO/N=C1\c2ccccc2-c2nc3c(CN4CCCCC4)cccc3nc21.Cl
Reply text: inactive

Inquiry: Which outcome was assigned to C(=N\OCCN1CCCC1)/c1cccc2nc3c(nc12)-c1ccccc1/C3=N\OCCN1CCCC1.Cl in this test?
Reply text: active

Inquiry: Hello, I am checking results. What call was entered for CN(C)CCCNC(=O)c1cccc2nc3c(nc12)-c1ccccc1C3=O ?
Reply text: inactive

Inquiry: Lab log entry: CN(C)CCCO/N=C1\c2ccccc2-c2nc3c(CN4CCC(N5CCCCC5)CC4)cccc3nc21.Cl — outcome as called in the assay?
Reply text: inactive

Inquiry: Look up the recorded call for CN(C)CCCO/N=C1\c2ccccc2-c2nc3c(CN(C)C)cccc3nc21.Cl in this test.
Reply text: inactive

Inquiry: Which outcome was assigned to CN(C)CCCO/N=C1\c2ccccc2-c2nc3c(CN4CCCC4)cccc3nc21.Cl in this test?
Reply text: inactive

---

Exercise: for every item that follows, state its recorded pIC50.
- Assay notes: Antiproliferative activity against human PC3 cells after 72 hrs by XTT assay
- Assay type: functional, cell-based
- Stated conditions: PC-3, 72 h
pIC50: −log10 of the molar value.

Inquiry: Give the value of pIC50 reported for the following: O=C1c2ccccc2-c2nc3ccccc3nc21
Reply text: < 5.00

Inquiry: Quick one: give measured pIC50 for CN(C)Cc1cccc2nc3c(nc12)-c1ccccc1C3=O
Reply text: < 5.00

Inquiry: Look up pIC50 of O=C1c2ccccc2-c2nc3c(C(=O)NCCN4CCCC4)cccc3nc21 and report it.
Reply text: 4.92

Inquiry: Give pIC50 for the following compound: CN(C)CCCO/N=C1\c2ccccc2-c2nc3ccccc3nc21.Cl
Reply text: 5.06

Inquiry: Check the records and state pIC50 for O=C1c2ccccc2-c2nc3c(CN4CCCCC4)cccc3nc21
Reply text: < 5.00

Inquiry: Tell me measured pIC50 for O=C1c2ccccc2-c2nc3c(C(=O)O)cccc3nc21 please.
Reply text: < 5.00

---

Exercise: state measured IC50 for each of the molecules provided.
- Assay notes: Antiproliferative activity against human HuH7 cells after 72 hrs by XTT assay
- Format: functional, cell-based
- Stated conditions: Huh-7, 72 h
# value in µM; strip the unit string

Inquiry: Hello, please tell me recorded IC50 for this one: CN(C)CCCO/N=C1\c2ccccc2-c2nc3c(CN4CCC(N5CCCCC5)CC4)cccc3nc21.Cl
Reply text: 0.82

Inquiry: Please give measured IC50 of the following entry: CN(C)CCNC(=O)c1cccc2nc3c(nc12)-c1ccccc1C3=O
Reply text: 7.64

Inquiry: Please report the measured IC50 for Cc1cccc2nc3c(nc12)-c1ccccc1/C3=N\OCCCN(C)C.Cl
Reply text: 5.88

Inquiry: Give the measured IC50 for O=C1c2ccccc2-c2nc3c(C(=O)NCCN4CCCC4)cccc3nc21
Reply text: 8.51

Inquiry: Name the recorded IC50 of the item O=C1c2ccccc2-c2nc3c(CN4CCCC4)cccc3nc21 in your answer.
Reply text: 6.98

---

- Assay notes: Antiproliferative activity against human PC3 cells after 72 hrs by XTT assay
- Type: functional, cell-based
- Stated conditions: PC-3, 72 h
Measurement label: IC50 (µM)
Kindly answer with a numeric value in µM, unit omitted.

Inquiry: Indicate the recorded IC50 value for this compound: CN(C)CCCNC(=O)c1cccc2nc3c(nc12)-c1ccccc1C3=O
Reply text: 10.2

Inquiry: Please supply the value of reported IC50 for the item CC[C@@]1(O)C(=O)OCc2c1cc1n(c2=O)Cc2cc3c(CN(C)C)c(O)ccc3nc2-1
Reply text: 9.35

---

- Tested target: DNA topoisomerase 1 (Homo sapiens) (UniProt P11387)
- Sequence (P11387 whole entry): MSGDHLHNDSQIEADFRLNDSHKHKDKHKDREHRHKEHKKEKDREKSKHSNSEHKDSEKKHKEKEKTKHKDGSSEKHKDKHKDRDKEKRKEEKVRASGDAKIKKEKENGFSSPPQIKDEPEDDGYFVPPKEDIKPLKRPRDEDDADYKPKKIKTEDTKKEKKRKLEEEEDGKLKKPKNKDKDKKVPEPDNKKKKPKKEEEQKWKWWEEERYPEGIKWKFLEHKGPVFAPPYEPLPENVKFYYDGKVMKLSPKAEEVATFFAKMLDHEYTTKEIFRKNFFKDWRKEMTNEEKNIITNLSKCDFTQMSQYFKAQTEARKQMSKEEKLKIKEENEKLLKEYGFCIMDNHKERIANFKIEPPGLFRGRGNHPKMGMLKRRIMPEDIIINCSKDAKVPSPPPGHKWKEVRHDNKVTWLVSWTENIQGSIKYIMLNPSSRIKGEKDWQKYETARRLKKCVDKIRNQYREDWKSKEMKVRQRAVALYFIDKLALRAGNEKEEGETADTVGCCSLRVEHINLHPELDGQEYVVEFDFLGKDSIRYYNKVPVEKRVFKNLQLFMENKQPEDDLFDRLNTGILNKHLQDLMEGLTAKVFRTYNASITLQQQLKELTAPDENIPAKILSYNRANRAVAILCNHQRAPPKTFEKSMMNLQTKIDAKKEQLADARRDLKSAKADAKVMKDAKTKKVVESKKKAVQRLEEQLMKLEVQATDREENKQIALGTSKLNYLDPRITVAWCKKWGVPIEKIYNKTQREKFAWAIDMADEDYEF
- Assay notes: Inhibition of human DNA topoisomerase 1-mediated relaxation of supercoiled pBR322 DNA at 100 uM after 30 mins by ethidium bromide staining based agarose gel electrophoresis
Active and inactive are the calls of the source. No cut-off for these calls is given here.
Give your call using only these classes: Y for active, N for inactive

Inquiry: Outcome logged for O=Cc1cccc2nc3c(nc12)-c1ccccc1C3=O in this assay:
Reply text: N

Inquiry: // outcome(item) with item = C(=N\OCCN1CCCC1)/c1cccc2nc3c(nc12)-c1ccccc1/C3=N\OCCN1CCCC1.Cl
Reply text: Y

Inquiry: # outcome recorded in this test, key = CN(C)CCNC(=O)c1cccc2nc3c(nc12)-c1ccccc1C3=O
Reply text: Y

Inquiry: How was CN(C)CCCO/N=C1\c2ccccc2-c2nc3c(CN4CCCCC4)cccc3nc21.Cl classified in this test?
Reply text: Y

Inquiry: What did the test return for O=C1c2ccccc2-c2nc3c(C(=O)NCCN4CCOCC4)cccc3nc21 ?
Reply text: N

Inquiry: Lab log entry: COc1ccc2c(c1)/C(=N\OCCN1CCCC1)c1c-2c(O)nc2ccccc12 — outcome as called in the assay?
Reply text: Y

Inquiry: What classification did CN(C)CCCO/N=C1\c2ccccc2-c2nc3c(CN4CCC(N5CCCCC5)CC4)cccc3nc21.Cl end up with in this test?
Reply text: Y
